# Assay: Dog pharmacokinetics of the enantiomers after oral dosing of racemic AV1013
# Assay type: in vivo
# Applied conditions: male; beagle dog, oral 10 mg/kg racemic AV1013, plasma
Quantity measured: AUC(0-t)
Your answer should be a number followed by the unit of measure.

Prompt: Reported AUC(0-t), molecule CC(C)c1nn2ccccc2c1C(=O)[C@H](C)N [(S)-AV1013] : ____
Response: 24.2 µg·h/mL

* * *

# Assay: Rat pharmacokinetics of the enantiomers after oral dosing of racemic AV1013
# Assay type: in vivo
# Applied conditions: male, Sprague-Dawley, oral 25 mg/kg racemic AV1013, plasma
Quantity measured: AUC(0-t) (ng·h/mL)
Write down the numeric answer in ng·h/mL and omit the unit.

Prompt: Reported AUC(0-t), compound CC(C)c1nn2ccccc2c1C(=O)[C@H](C)N [(S)-AV1013] : ____
Response: 5950

* * *

# Assay: Dog pharmacokinetics of the enantiomers after oral dosing of racemic AV1013
# Format: in vivo
# Applied conditions: male, beagle, plasma, 10 mg/kg; dog, oral dosing of racemate, rounded values; read-out: calculated area under the curves (AUC)
Quantity measured: AUC (ng·h/mL)
Write down the numeric answer in ng·h/mL and omit the unit.

Prompt: Reported AUC, compound CC(C)c1nn2ccccc2c1C(=O)[C@H](C)N [(S)-AV1013] : ____
Response: 24200

* * *

# Assay: Rat pharmacokinetics of the enantiomers after oral dosing of racemic AV1013
# Format: in vivo
# Applied conditions: male, Sprague-Dawley, plasma, po, 25 mg/kg, oral dosing of racemate, rounded values, read-out: mean peak plasma levels (Cmax)
Quantity measured: Cmax (ng/mL)
Write down the numeric answer in ng/mL and omit the unit.

Prompt: Reported Cmax, compound CC(C)c1nn2ccccc2c1C(=O)[C@H](C)N [(S)-AV1013] : ____
Response: 1300
